# Test system: SMMC-7721 (human hepatoma cells)
# Protocol: MTT inhibition of tumor cell growth, SMMC-7721
# Type: cell-based
# Test Parameters: Table 1, 7-hydroxy derivatives of S-3, 48 h
# Procedure: 1. Inoculating cells: the culture medium DMEM or RMPI1640 containing 10% fetal bovine serum was used to prepare a single cell suspension, and the cell suspension was inoculated to a 96-well plate at 5000-10000 cells per well (100 μl for each well); Adherent cells were inoculated and cultured for 12 h in advance. […] 4. Colorimetric assay: ELISA Reader (Bio-Rad 680) was used to obtain the light absorption for each well at a wavelength of 595 nm, the results were recorded. […]
Test Readout: IC50
Value and unit, in that order.

Input: Return IC50 for the following compound: [NH2][Pt]([NH2])([Cl])[Cl] [cis-DDP, reference compound]
Output: 8.86 µM

Just for reference, patent US10112918B2 is where these values come from.
